- Target: HLA-A*30:01 (Homo sapiens, UniProt P04439, D140H/D185E/E176W/F33S/G80R/H175R/K168Q/R138E/R41S)
- Type: binding
- Condition Context: percent relative the binding of positive control peptide […]; duplicated experiments; positive binder >40%
Property: Bind A*30:01; scope: individual substances
Number only, in %; omit the unit.

| Substance | Value Type | Measured Result |
| --- | --- | --- |
| SAAIGLSMA | Bind A*30:01 | 0 |
| IMYNYPTML [Rv0288_4–12m1] | Bind A*30:01 | 28 |

// recorded Bind A*30:01 for DW YSPACGK : 11

What the record says about NNTRLW VYC : Bind A*30:01 is 19

The substance identified as GSSAMILAA registered its Bind A*30:01 at 0

What the record says about SLIGLAMGD : Bind A*30:01 is 0

Lookup result for YNAAGGHNA ; measured Bind A*30:01: 10
